# Assay Explanation: Survival after severe acetaminophen intoxication, fasted 36 hours (FIG. 3)
# Format: in vivo, mice
# Reported Conditions: mouse, in vivo, ip; 350 mg/kg i.p., fasted 36 hours, by 8 hours
Assay Readout: mortality at 8 h (%)
Give the number; % is assumed, so skip it.

Please indicate mortality at 8 h recorded for CC(=O)Nc1ccc(O)cc1 [acetaminophen, reference compound] 75
